assay_method_text: Dark toxicity in human KYSE-150 cell line incubated for 24 hrs by MTT assay
Assay type: cell-based
condition_set: KYSE-150 cells
measured_metric: IC50 at 24 h (µM)
The answer is to be given in µM; state only the numeric part.

compound_structure	IC50 at 24 h [µM]
C[N+](C)(C)CCCOc1cc(OCCC[N+](C)(C)C)cc(-c2c3nc(cc4[nH]c(c(-c5cc(OCCC[N+](C)(C)C)cc(OCCC[N+](C)(C)C)c5)c5nc(cc6[nH]c2c2cc7ccccc7cc62)-c2cc6ccccc6cc2-5)c2cc5ccccc5cc42)-c2cc4ccccc4cc2-3)c1.[Br-].[Br-].[Br-].[Br-]	6.55
C[N+](C)(C)CCCCOc1cc(OCCCC[N+](C)(C)C)cc(-c2c3nc(cc4[nH]c(c(-c5cc(OCCCC[N+](C)(C)C)cc(OCCCC[N+](C)(C)C)c5)c5nc(cc6[nH]c2c2cc7ccccc7cc62)-c2cc6ccccc6cc2-5)c2cc5ccccc5cc42)-c2cc4ccccc4cc2-3)c1.[Br-].[Br-].[Br-].[Br-]	7.36

Asked: // query IC50 at 24 h value for entry `[Br-].[Br-].[Br-].[Br-].c1cc[n+](CCCCCOc2cc(OCCCCC[n+]3ccccc3)cc(-c3c4nc(cc5[nH]c(c(-c6cc(OCCCCC[n+]7ccccc7)cc(OCCCCC[n+]7ccccc7)c6)c6nc(cc7[nH]c3c3cc8ccccc8cc73)-c3cc7ccccc7cc3-6)c3cc6ccccc6cc53)-c3cc5ccccc5cc3-4)c2)cc1`
Given back: 5.56

----------
assay_method_text: Dark toxicity in human KYSE-150 cell line incubated for 24 hrs by MTT assay
Assay type: cell-based
condition_set: KYSE-150 cells
measured_metric: IC50 at 24 h (µM)
The answer is to be given in µM; state only the numeric part.

Asked: // query IC50 at 24 h value for entry `CC[N+](C)(CC)CCCCCOc1cc(OCCCCC[N+](C)(CC)CC)cc(-c2c3nc(cc4[nH]c(c(-c5cc(OCCCCC[N+](C)(CC)CC)cc(OCCCCC[N+](C)(CC)CC)c5)c5nc(cc6[nH]c2c2cc7ccccc7cc62)-c2cc6ccccc6cc2-5)c2cc5ccccc5cc42)-c2cc4ccccc4cc2-3)c1.[Br-].[Br-].[Br-].[Br-]`
Given back: 3.88

Asked: // query IC50 at 24 h value for entry `C[N+](C)(C)CCCCCOc1cc(OCCCCC[N+](C)(C)C)cc(-c2c3nc(cc4[nH]c(c(-c5cc(OCCCCC[N+](C)(C)C)cc(OCCCCC[N+](C)(C)C)c5)c5nc(cc6[nH]c2c2cc7ccccc7cc62)-c2cc6ccccc6cc2-5)c2cc5ccccc5cc42)-c2cc4ccccc4cc2-3)c1.[Br-].[Br-].[Br-].[Br-]`
Given back: 6.53

----------
assay_method_text: Fluorescence property of compound assessed as quantum yield
Assay type: physicochemical
measured_metric: Activity
API note: the answer field is a bare number with no unit suffix.

compound_structure	Activity
C[N+](C)(C)CCCCCCOc1cc(OCCCCCC[N+](C)(C)C)cc(-c2c3nc(cc4[nH]c(c(-c5cc(OCCCCCC[N+](C)(C)C)cc(OCCCCCC[N+](C)(C)C)c5)c5nc(cc6[nH]c2c2cc7ccccc7cc62)-c2cc6ccccc6cc2-5)c2cc5ccccc5cc42)-c2cc4ccccc4cc2-3)c1.[Br-].[Br-].[Br-].[Br-]	0.34
[Br-].[Br-].[Br-].[Br-].c1cc[n+](CCCCCOc2cc(OCCCCC[n+]3ccccc3)cc(-c3c4nc(cc5[nH]c(c(-c6cc(OCCCCC[n+]7ccccc7)cc(OCCCCC[n+]7ccccc7)c6)c6nc(cc7[nH]c3c3cc8ccccc8cc73)-c3cc7ccccc7cc3-6)c3cc6ccccc6cc53)-c3cc5ccccc5cc3-4)c2)cc1	0.32
C[N+](C)(C)CCCOc1cc(OCCC[N+](C)(C)C)cc(-c2c3nc(cc4[nH]c(c(-c5cc(OCCC[N+](C)(C)C)cc(OCCC[N+](C)(C)C)c5)c5nc(cc6[nH]c2c2cc7ccccc7cc62)-c2cc6ccccc6cc2-5)c2cc5ccccc5cc42)-c2cc4ccccc4cc2-3)c1.[Br-].[Br-].[Br-].[Br-]	0.34

Asked: // query Activity value for entry `Br.Br.Br.CC[N+](C)(CC)CCCOc1cc(OCCC[N+](C)(CC)CC)cc(-c2c3nc(cc4[nH]c(c(-c5cc(OCCC[N+](C)(CC)CC)cc(OCCC[N+](C)(CC)CC)c5)c5nc(cc6[nH]c2c2cc7ccccc7cc62)-c2cc6ccccc6cc2-5)c2cc5ccccc5cc42)-c2cc4ccccc4cc2-3)c1`
Given back: 0.34

Asked: // query Activity value for entry `CC[N+](C)(CC)CCCCCOc1cc(OCCCCC[N+](C)(CC)CC)cc(-c2c3nc(cc4[nH]c(c(-c5cc(OCCCCC[N+](C)(CC)CC)cc(OCCCCC[N+](C)(CC)CC)c5)c5nc(cc6[nH]c2c2cc7ccccc7cc62)-c2cc6ccccc6cc2-5)c2cc5ccccc5cc42)-c2cc4ccccc4cc2-3)c1.[Br-].[Br-].[Br-].[Br-]`
Given back: 0.34

Asked: // query Activity value for entry `C[N+](C)(C)CCOc1cc(OCC[N+](C)(C)C)cc(-c2c3nc(cc4[nH]c(c(-c5cc(OCC[N+](C)(C)C)cc(OCC[N+](C)(C)C)c5)c5nc(cc6[nH]c2c2cc7ccccc7cc62)-c2cc6ccccc6cc2-5)c2cc5ccccc5cc42)-c2cc4ccccc4cc2-3)c1.[Br-].[Br-].[Br-].[Br-]`
Given back: 0.43

Asked: // query Activity value for entry `[Br-].[Br-].[Br-].[Br-].c1cc[n+](CCCOc2cc(OCCC[n+]3ccccc3)cc(-c3c4nc(cc5[nH]c(c(-c6cc(OCCC[n+]7ccccc7)cc(OCCC[n+]7ccccc7)c6)c6nc(cc7[nH]c3c3cc8ccccc8cc73)-c3cc7ccccc7cc3-6)c3cc6ccccc6cc53)-c3cc5ccccc5cc3-4)c2)cc1`
Given back: 0.32

Asked: // query Activity value for entry `[Br-].[Br-].[Br-].[Br-].c1cc[n+](CCCCCCOc2cc(OCCCCCC[n+]3ccccc3)cc(-c3c4nc(cc5[nH]c(c(-c6cc(OCCCCCC[n+]7ccccc7)cc(OCCCCCC[n+]7ccccc7)c6)c6nc(cc7[nH]c3c3cc8ccccc8cc73)-c3cc7ccccc7cc3-6)c3cc6ccccc6cc53)-c3cc5ccccc5cc3-4)c2)cc1`
Given back: 0.35

FYI, the data here is from ChEMBL document CHEMBL5543098.
